Measured Inhibition, listed per entry.
- System: Plasmodium falciparum
- run description: GSK_TCMDC: Inhibition of Plasmodium falciparum 3D7 in whole red blood cells, using parasite LDH activity as an index of growth. Test compounds present at 2uM
- Type: functional
The reply should be a number in %, with the unit left off.

For orientation, consider the following solved cases.
{"compound": "CC(C)[C@H]1CC[C@H](C)C[C@@H]1OC(=O)N[C@@H](Cc1ccc(O)cc1)C(=O)NC1CCN(Cc2ccc(OCCCN(C)C)cc2)C1 (some centres not stated)", "Inhibition [%]": 99}
{"compound": "CCCN1CCN(Cc2ccc(C(=O)Nc3ccc(Cl)cc3)cc2)CC1.O=C(O)C(F)(F)F", "Inhibition [%]": 94}
{"compound": "CCOc1ccc2ccccc2c1CNCCCCCCNCc1c(OCC)ccc2ccccc12.CS(=O)(=O)O", "Inhibition [%]": 100}

[in] Value lookup for Inhibition; key = `CC(C)NCc1cccc(-c2ccc(NC(=O)c3ccc(F)cc3)cc2)c1.O=C(O)C(F)(F)F`
[out] 92

[in] Another: O=C(C1CCN(C(c2ccccc2)c2ccc(Cl)c(Cl)c2)CC1)N1CC=CC1 (configuration not stated)
[out] 89

[in] Another: `CCCCCN1CCCN(Cc2cccc(NC(=O)c3ccc4ccccc4c3)c2)CC1.O=C(O)C(F)(F)F`
[out] 86

[in] Another: `CCN(CCS(C)(=O)=O)Cc1ccc(-c2ccc3ncnc(Nc4ccc(OCc5cccc(F)c5)c(Cl)c4)c3c2)o1.Cc1ccc(S(=O)(=O)O)cc1`
[out] 100

[in] Another: `Cc1ccc(Nc2ccnc3ccc(C(F)(F)F)cc23)cc1O.O=C(O)C(F)(F)F`
[out] 100

[in] Another: `O=C(NCc1cccc2ccccc12)[C@@H]1CCCN1C(=O)c1ccc(O)c(-c2ccc(Cl)c(Cl)c2)c1`
[out] 98

[in] Another: Br.CCC(ON1C(N)=NC(N)=NC1(C)C)c1ccc(Cl)cc1 (configuration not stated)
[out] 91

[in] Another: `COc1ccc(CCN(C)CCOc2ccc(NC(=O)c3ccc([N+](=O)[O-])c4c(=O)c5ccccc5[nH]c34)cc2)cc1OC`
[out] 91

[in] Another: `CCc1cn2c3c(cc(C(=O)N[C@@H](Cc4ccccc4)[C@H](O)CNC4CCCC4)cc13)N(C)S(=O)(=O)CC2`
[out] 100

[in] Another: `O=C(O)C(F)(F)F.Oc1ccc(CCCNc2nc(NCc3cccc4ccccc34)nc(N3CCNCC3)n2)cc1`
[out] 100

[in] Another: `CCN(CCCN1CCCCC1)c1cc(C)nc(Nc2ccc(C)cc2C(F)(F)F)n1.O=C(O)C(F)(F)F`
[out] 100

[in] Another: `COc1ccc(CCN2CC[C@H](CNc3nc(-c4ccccc4)nc4ccccc34)C2)cc1S(N)(=O)=O.O=C(O)C(F)(F)F`
[out] 85

[in] Another: `CCNC(=O)Nc1ccc(-c2ccc(-c3nc4cccc(C)c4[nH]3)s2)cc1`
[out] 96

[in] Another: CCCC(C)Nc1nc(C)cc(NCCC(=O)Nc2ccc(OC)cc2)n1.O=C(O)C(F)(F)F (configuration not stated)
[out] 97

---

- System: Plasmodium falciparum
- run description: GSK_TCMDC: Inhibition of Plasmodium falciparum Dd2 in whole red blood cells, using parasite LDH activity as an index of growth. Test compounds present at 2uM
- Assay type: functional
Measured Inhibition, listed per entry.
The reply should be a number in %, with the unit left off.

For orientation, consider the following solved cases.
{"compound": "COc1cc2nc(NCCc3ccccc3)nc(NCc3nccs3)c2cc1OC", "Inhibition, %": 93}
{"compound": "CS(=O)(=O)O.CSc1ccc2ccccc2c1CNCCCCCCNCc1c(SC)ccc2ccccc12", "Inhibition, %": 74}
{"compound": "O=C(O)C(F)(F)F.Oc1ccc(-c2nc3c(N4CCN(Cc5ccccc5)CC4)cccc3n2C2CCNCC2)cc1", "Inhibition, %": 7}
{"compound": "O=C(NCc1cccc2ccccc12)[C@@H]1CCCN1C(=O)c1ccc(O)c(-c2ccc(Cl)c(Cl)c2)c1", "Inhibition, %": 71}
{"compound": "CCN(CCCN1CCCCC1)c1cc(C)nc(Nc2cccc(C(F)(F)F)c2)n1.O=C(O)C(F)(F)F", "Inhibition, %": 88}

[in] Value lookup for Inhibition; key = `CC(C)C(C(=O)n1cc2c(ccc3nc(N)nc(N)c32)n1)C(C)C`
[out] 49

[in] Another: `Cc1cccc(NC(=S)NC2CCN(CCCCCNC(=O)/C=C/c3ccc(Cl)c(Cl)c3)CC2)c1`
[out] 19

[in] Another: `COc1cc(CNC[C@@H](O)[C@H](Cc2ccccc2)NC(=O)c2cc(C3CCCC3)cc(N3CCCS3(=O)=O)c2)cc(OC)c1.Cl`
[out] 94

[in] Another: `Br.Cc1ccnc(Nc2nc(-c3ccccn3)cs2)c1`
[out] 87

[in] Another: `COc1cc(Nc2ccnc3cc(-c4ccccn4)ccc23)cc(OC)c1OC.Cl`
[out] 0

[in] Another: `O=C(O)C(F)(F)F.Oc1ccc(CCNc2nc(NCCOc3cccc4ccccc34)nc(N3CCNCC3)n2)cc1`
[out] 8

[in] Another: `Cc1ccc(C)c2sc(N3CCN(C(=O)c4ccc([N+](=O)[O-])o4)CC3)nc12`
[out] 89

[in] Another: `NC(=O)c1cccc(CNCc2ccc(-c3cccc(-c4nc5ccccc5[nH]4)c3)cc2)c1.O=C(O)C(F)(F)F`
[out] 94

[in] Another: `Clc1cccc(CNc2nc(NCCc3c[nH]cn3)nc(NC3CCCCC3)n2)c1`
[out] 0

[in] Another: Cl.O=[N+]([O-])c1ccc(C(O)CNCCc2ccccc2)cc1OCc1ccccc1 (stereo not drawn)
[out] 67

[in] Another: `Cc1cc(NC(=O)Nc2cccc(C#N)c2)c2ccccc2n1`
[out] 82

[in] Another: `C=CCOc1ccc(CNC2CCN(Cc3ccccc3)CC2)cc1Br.O=C(O)C(=O)O`
[out] 8

[in] Another: `COc1cc2c(=O)c(Cc3ccc(Cl)cc3)c(C)[nH]c2cc1F`
[out] 28

[in] Another: `NS(=O)(=O)CCc1cccc(Nc2nccc(-c3c(-c4cccc(NC(=O)c5c(F)cccc5F)c4)nn4ccccc34)n2)c1`
[out] 97
